molecular target: human IL-6 (as added in the B9 and 7TD1 bioassays) (human, UniProt P05231 30-212); assay: cell-based or functional assay
Property: IC50, 7TD1 proliferation assay, exp 29.06; scope: individual binders
measured attribute: IC50, 7TD1 proliferation assay, exp 29.06 (pM)

binder | endpoint result
129F2 (germlined variant of 68F2), full-length IgG1 (antibody, V domains shown) VH: EVQLQESGPGLVKPSQTLSLTCTVSGGSITSRYYAWSWIRQPPGKGLEWIGVIDYDGDTYYSPSLKSRVTISWDTSKNQFSLKLSSVTAEDTAVYYCARDPDVVTGFHYDYWGQGTMVTVSS VL: QSALTQPPSVSGTPGQTVTISCAGANNDIGTYAYVSWYQQLPGTAPKLMIYKVTTRASGIPDRFSGSKSGNTASLTISGLQSEDEADYYCASYRNFNNAVFGGGTKLTVL | 0.517
129D3 (germlined variant of 68F2), full-length IgG1 (antibody, V domains shown) VH: EVQLQESGPGLVKPSQTLSLTCTVSGGSITSRYYAWSWIRQPPGKGLEWIGVIDYDGDTYYSPSLKSRVSISWDTSKNQFSLKLSSVTPADTAVYYCARDPDVVTGFHYDYWGQGTMVTVSS VL: QSALTQPPSVSGTPGQSVTISCAGANNDIGTYAYVSWYQQLPGTAPKLMIYKVTTRASGIPDRFSGSKSGNTASLTISGLQAEDEADYYCASYRNFNNAVFGTGTKLTVL | 0.574
126A3 (germlined variant of 68F2), full-length IgG1 (antibody, V domains shown) VH: EVQLQESGPGLVKPSQTLSLTCTVSGGSITTRYYAWSWIRQPPGKGLEWIGVIDYDGDTYYSPSLKSRVTISVDTSKNQFSLKLSSVTAADTAVYYCARDPDVVTGFHYDYWGQGTMVTVSS VL: QSALTQPPSVSGAPGQTVTISCAGANNDIGTYAYVSWYQQLPGTAPKLLIYKVTTRASGIPSRFSGSKSGNTASLTITGLQSEDEADYYCASYRNFNNAVFGRGTKLTVL | 0.564
127F1 (germlined variant of 68F2), full-length IgG1 (antibody, V domains shown) VH: EVQLQESGPGLVKPSQTLSLTCTVSGGSITTRYYAWSWIRQPPGKGLEWIGVIDYDGDTYYSPSLKSRVSISWDTSKNQFSLKLSSVTAADTAVYYCARDPDVVTGFHYDYWGQGTLVTVSS VL: QSVLTQPPSVSGTPGQRVTISCAGANNDIGTYAYVSWYQQLPGTAPKLLIYKVTTRASGVPDRFSGSKSGNSASLTITGLQSEDEADYYCASYRNFNNAVFGGGTHLTVL | 0.637

From: patent US20220073604A1
